Test system: SK-MEL-28
Assay: NCI tumour cell line growth inhibition, 48 h
Active and inactive are the calls of the source. Cut-off read from the data, not from the text of the source: active = GI50 up to about 1.1 µM and inactive = higher.
For each entry below, report its GI50 value.

QUERY: Sample "CCOc1ccc2c(c1)[n+]([O-])c(-c1ccc([N+](=O)[O-])cc1)c(N)[n+]2[O-]" — what was its GI50?
RESULT: > 100 µM (inactive)

QUERY: Another compound to look at: "Cc1nc2c(sc(=S)n2-c2ccccc2)c2nc3ccccc3n12"
RESULT: > 100 µM (inactive)

QUERY: Another compound to look at: "O=C(/C=C\c1ccccc1)Oc1ccc(/C=C2\CCC/C(=C\c3ccc(OC(=O)/C=C\c4ccccc4)cc3)C2=O)cc1"
RESULT: > 100 µM (inactive)

QUERY: Another compound to look at: COc1ccccc1N1C(=O)CSC1c1c[nH]c2ccccc12 (stereo not given)
RESULT: 66.7 µM (inactive)

QUERY: Another compound to look at: C=C(C)C12CC3CC(/C(=N/O)C(C1)/C3=N\O)[C@@]2(C)O (stereo not given in full)
RESULT: > 100 µM (inactive)

Data provenance: ChEMBL document CHEMBL1201862
